# targetUnderTest: biotinylated SARS-CoV-2 S1 variant B.1.351 (Example 5) (SARS-CoV-2) (UniProt P0DTC2)
# experimentalProtocol: phage ELISA screening
Record form. Attribute: ELISA. Fill in for each entry.
Lab note: jot the number down without any unit.

The recorded ELISA for 11-2 (antibody, V domains shown) VH: QVQLVESGGGVVQPGRSLRLSCAASGFTFGTYAMHWVRQAPGKGLEWVAVVSTEGGTTYYADSVKGRFTISRDNSKNTLYLQMNSLRAEDTAVYYCAGSYGAYFDYWGQGTLVTVSS VL: EIVLTQSPATLSLSPGERATLSCRASQSVNSYLAWYQQKPGQAPRLLIYDVSNRATGIPARFSGSGSGTDFTLTISSLEPEDFAVYYCQQFSNWPTFGGGTKVEIK is 19.4

Item: 12-42 (antibody, V domains shown) VH: QVQLVESGGGVVQPGRSLRLSCAASGFTFGSYGMHWVRQAPGKGLEWVAVISYDGSHKYYADSVKGRFTISRDNSKNTLYLQMNSLRAEDTAVYYCARALGGNYYYFDYWGQGTLVTVSS VL: EIVLTQSPATLSLSPGERATLSCRASQSVDSRLAWYQQKPGQAPRLLIYDTSNRATGIPARFSGSGSGTDFTLTISSLEPEDFAVYYCQQRSSNWTFGGGTKVEIK | ELISA: 4.93

The recorded ELISA for entry 12-27 (antibody, V domains shown) VH: QVQLVESGGGVVQPGRSLRLSCAASGFSFGGYGMHWVRQAPGKGLEWVAVISYDGSTKYYADSVKGRFTISRDNSKNTLYLQMNSLRAEDTAVYYCARPRGGSYKDAFDIWGQGTLVTVSS VL: EIVLTQSPATLSLSPGERATLSCRASDTVSSYLAWYQQKPGQAPRLLIYDTSNRATGIPARFSGSGSGTDFTLTISSLEPEDFAVYYCQQRASWPLSFGGGTKVEIK equals 8.83
